Test system: BT-549 breast
TEST PROTOCOL: NCI-60 one-dose screen, 48 h
CONDITION: 10 µM unless noted
This is part of a sample that, as a whole, favours compounds with a hit. Of some 83,000 tested, about 20% had one in any assay. The source made the active and inactive calls. The calls were made as follows: active = growth percent below 10; inactive = the rest.
Classes used: active, inactive

>>> cat("O=C1/C(=C/c2cccc3c2OCO3)Cc2c(F)cc(Br)cc21")
"inactive"
>>> cat("CN1CCN(C(=O)CCN(C(=O)Oc2cc3c(c4ccccc24)[C@H](CCl)CN3C(=O)c2cc3cc(OCCCN4CCC4)ccc3[nH]2)[C@H]2CCSSC2)CC1")
"active"
>>> cat("CCCCCCCCCCCCCCCCCC(=O)Nc1ccc(OC)cc1")
"inactive"
>>> cat("COc1cc(C2CC(c3ccc(S(=O)(=O)NCCNc4nc(N(C)C)nc(N5CCOCC5)n4)cc3)=Nc3c(N)nc(N)nc3N2)cc(OC)c1OC (stereo not drawn)")
"inactive"
>>> cat("O=C1/C(=C/C=C/c2ccco2)SC(=S)N1CC(=S)C1C=CS(=O)(=O)C1 (stereo not drawn)")
"inactive"
>>> cat("S=C(Nc1ccccc1)Nc1ccc(OCc2nc3ccc(Cl)cc3[nH]2)cc1")
"inactive"
>>> cat("COc1cccc(-c2ccc(/C=N/NC(=O)c3[nH]c4ccc(Br)cc4c3-c3ccccc3)s2)c1")
"active"
>>> cat("COc1ccc(C(=O)C[n+]2cccc3c4ccccc4ccc32)cc1")
"inactive"
>>> cat("COc1ccc(/C=C/c2nc3ccccc3n3c(-c4cccc([N+](=O)[O-])c4)nnc23)cc1")
"active"
>>> cat("C=CCSc1nnc(-c2ccc(-c3nc4ccccc4[nH]3)cc2)o1")
"inactive"
>>> cat("COc1cc(C2C(C(=O)OCc3ccccc3)=C(C)Nc3nc4ccccc4n32)cc(OC)c1OC (stereo not drawn)")
"inactive"
>>> cat("COc1ccc(N=Nc2c(N)nn3c(-c4cc5ccccc5oc4=O)ccnc23)cc1")
"inactive"
>>> cat("Nc1cc2ccccc2c(=O)n1NC(=O)c1ccc(Br)cc1")
"inactive"
>>> cat("O=C1/C(=C/c2cnc(-c3ccccc3)s2)SC(=S)N1Cc1ccc2c(c1)OCO2")
"inactive"
>>> cat("O=C(N/N=C/c1ccc(Cl)o1)c1[nH]c2ccc(Br)cc2c1-c1ccccc1")
"active"
>>> cat("COc1c2c(c(Br)c3c1C(CCc1ccccc1)N(C)CC3)OCO2 (stereo not drawn)")
"active"
>>> cat("COc1ccc(/C=C/c2nc3ccccc3c(=O)n2CC(=O)Nc2ccccc2)cc1")
"inactive"
>>> cat("CC(C)(C)OC(=O)N1CCC2(CC1)Oc1ccccc1[C@H]1CC(c3ccc(Br)cc3)=NN12")
"inactive"
>>> cat("Cc1cc(C(NC(=O)CCCCCNc2cccc3c2C(=O)N(C2CCC(=O)CC2=O)C3=O)c2cccc(N(C)C)c2)c(O)c2ncccc12 (stereo not drawn)")
"active"
>>> cat("COc1cccc(NC(=O)c2ccc(NC(=O)CCl)s2)c1")
"inactive"
>>> cat("Cc1cc(Cl)ccc1NC(=O)Nc1ccc(-c2ccc3c(c2)NC(=O)/C3=C\\c2ccc[nH]2)cc1")
"inactive"
>>> cat("O=C(CSc1nnc(-c2ccc(-c3nc4ccccc4[nH]3)cc2)o1)Nc1ccc(Br)cc1")
"inactive"
>>> cat("C#CCN(C)CCCOc1ccc(N(C)C(=O)c2cc(C(C)C)c(O)cc2O)cc1Cl")
"active"
>>> cat("O=C(N=Nc1c(O)[nH]c2ccc(Br)cc12)c1ccc2nc(-c3ccc(Cl)cc3)[nH]c2c1")
"active"
>>> cat("CN1C(=O)C(O)(CC(=O)c2cc3ccccc3oc2=O)c2ccccc21 (stereo not drawn)")
"inactive"
>>> cat("S=C(Nc1ccc(OCc2nc3ccc(Cl)cc3[nH]2)cc1)NC1CCCCC1")
"inactive"
>>> cat("FC(F)(F)c1cc2c(Cl)ncnc2n1CCN1CCCCC1")
"active"
>>> cat("C=CC(=O)Nc1ccc(C(=O)/C=C/c2ccc(N(C)C)cc2)c(O)c1")
"active"
